Listing of entries alongside the reported pIC50.
measurement-target: MGIC (Myoinhibitory peptide-Gated Ion Channel; ENaC5) (Platynereis dumerilii)
Sequence (A0A2S1B6I3 1-589): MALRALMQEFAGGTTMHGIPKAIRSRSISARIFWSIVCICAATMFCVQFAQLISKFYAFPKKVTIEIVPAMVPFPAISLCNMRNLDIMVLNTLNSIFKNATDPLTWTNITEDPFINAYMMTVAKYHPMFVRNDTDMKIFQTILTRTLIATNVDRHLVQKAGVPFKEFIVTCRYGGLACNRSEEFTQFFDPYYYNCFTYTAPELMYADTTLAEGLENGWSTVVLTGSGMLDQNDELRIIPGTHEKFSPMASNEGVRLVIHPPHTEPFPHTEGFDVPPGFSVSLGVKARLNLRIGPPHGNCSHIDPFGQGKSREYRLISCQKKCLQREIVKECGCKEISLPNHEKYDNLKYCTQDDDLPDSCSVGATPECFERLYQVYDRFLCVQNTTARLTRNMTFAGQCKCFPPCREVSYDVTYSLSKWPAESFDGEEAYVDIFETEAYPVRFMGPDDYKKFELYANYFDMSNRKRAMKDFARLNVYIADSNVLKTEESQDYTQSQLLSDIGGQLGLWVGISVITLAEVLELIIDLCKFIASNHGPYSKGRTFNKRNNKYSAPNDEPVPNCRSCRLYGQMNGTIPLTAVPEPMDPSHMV
procedure-summary: two-electrode voltage clamp, Xenopus oocytes
Here pIC50 is given on a logarithmic scale as minus log10 of the concentration in mol/L.

>>> print(df.to_string())
                                 compound                        measurement_target  numeric_readout
0  N=C(N)c1ccc(/N=N/Nc2ccc(C(=N)N)cc2)cc1  MGIC (Myoinhibitory peptide-Gated Ion Channel; ENaC5) (Platynereis dumerilii)             6.14

For reference, reported pIC50 for N=C(N)NC(=O)c1nc(Cl)c(N)nc1N [amiloride] stands at 4.89

Data credit: paper doi:10.1101/261990v1
